molecular target: PTP1B (Homo sapiens, UniProt P18031); experiment: Bio-Layer Interferometry; type: binding
Sequence (P18031 whole entry): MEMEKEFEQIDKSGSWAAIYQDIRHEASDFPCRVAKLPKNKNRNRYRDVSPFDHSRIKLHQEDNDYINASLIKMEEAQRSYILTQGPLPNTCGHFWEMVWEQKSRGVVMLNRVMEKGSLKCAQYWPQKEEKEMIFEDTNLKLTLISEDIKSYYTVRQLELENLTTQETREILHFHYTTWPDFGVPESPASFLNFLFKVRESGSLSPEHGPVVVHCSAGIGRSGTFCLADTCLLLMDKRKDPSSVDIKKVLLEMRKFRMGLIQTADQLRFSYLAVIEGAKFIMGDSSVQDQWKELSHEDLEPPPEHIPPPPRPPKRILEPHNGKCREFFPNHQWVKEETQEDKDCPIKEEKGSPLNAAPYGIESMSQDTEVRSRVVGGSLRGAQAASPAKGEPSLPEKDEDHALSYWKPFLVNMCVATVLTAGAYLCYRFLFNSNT

[
  {
    "substance": "Ac-KTFLHWRYC-NH2 [M1_SS]",
    "Kd [µM]": 9.2
  }
]

Origin of the recorded values: paper PMC11290325
